Would you mind telling me the reported GR BINDING (% Inhibition @ 1.7 μM) of each entry?
STUDY SYSTEM: Human glucocorticoid receptors (Homo sapiens)
Construct: made in house; host or cells: Sf9 insect cells, recombinant baculovirus (BAC-TO-BAC)
Sequence (P04150 whole entry): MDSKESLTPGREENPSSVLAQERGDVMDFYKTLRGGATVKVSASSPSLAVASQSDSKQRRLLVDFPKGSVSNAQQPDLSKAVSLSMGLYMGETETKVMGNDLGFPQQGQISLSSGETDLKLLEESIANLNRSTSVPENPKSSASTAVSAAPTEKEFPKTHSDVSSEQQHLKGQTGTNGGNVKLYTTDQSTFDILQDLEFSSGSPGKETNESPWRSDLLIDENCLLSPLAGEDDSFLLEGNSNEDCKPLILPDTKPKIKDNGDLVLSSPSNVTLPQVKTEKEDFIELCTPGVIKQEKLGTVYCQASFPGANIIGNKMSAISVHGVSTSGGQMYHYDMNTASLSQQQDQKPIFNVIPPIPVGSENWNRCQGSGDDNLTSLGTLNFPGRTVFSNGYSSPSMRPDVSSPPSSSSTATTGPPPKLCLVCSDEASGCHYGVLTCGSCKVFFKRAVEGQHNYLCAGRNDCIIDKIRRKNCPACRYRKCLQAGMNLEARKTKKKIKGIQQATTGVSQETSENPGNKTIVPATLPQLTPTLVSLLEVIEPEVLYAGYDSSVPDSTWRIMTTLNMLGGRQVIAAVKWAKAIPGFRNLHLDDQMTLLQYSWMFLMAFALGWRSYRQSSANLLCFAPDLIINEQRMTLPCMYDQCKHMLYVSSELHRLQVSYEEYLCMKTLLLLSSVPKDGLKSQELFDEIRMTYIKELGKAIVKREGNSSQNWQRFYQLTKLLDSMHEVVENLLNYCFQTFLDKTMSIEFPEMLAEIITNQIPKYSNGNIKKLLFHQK
PROTOCOL TEXT: Radioligand filter binding assay, displacement of 3(H)-dexamethasone from human glucocorticoid receptor cytosol
RECORDED CONDITIONS: 1.7 μM test compound; inhibition of 3(H)-dex binding to hGR
# output: number + unit

>>> df
                                   molecule  reported_result
0  COc1cccc2c1-c1ccc(NS(C)(=O)=O)cc1[C@@H](c1ccccc1)O2            36.9%
1  COCCNC(=O)c1cccc(C2Oc3cccc(OC)c3-c3ccc(NS(C)(=O)=O)cc32)c1 (stereo not shown)            44.3%
2  COc1cccc2c1-c1ccc(NS(=O)(=O)C(C)C)cc1C(c1ccccc1)O2 (stereo not shown)            87.9%

Query molecule follows.
# lookup: CCC(=O)Nc1ccc2c(c1)C(c1ccccc1)Oc1cccc(OC)c1-2 (stereo not shown) on Human glucocorticoid receptors (Homo sapiens), GR BINDING (% Inhibition @ 1.7 μM) = 85.4%

Data origin: patent US6593480B2
